These entries and their values trace back to patent US7943575B2.

Assay: Pharmacokinetic profile of a SOMATULINE/DECAPEPTYL composition in beagle dogs (RIA of blood samples)
Format: in vivo
Details: dog, in vivo; TIME 3.02 days; beagle dogs; 0.15 ml Example 1 semisolid mixture injected; read-out: concentration in blood samples (RIA)
ATTRIBUTE_MEASURED: level at 72.48 h (ng/mL)

compound="CC(C)[C@@H]1NC(=O)[C@H](CCCCN)NC(=O)[C@@H](Cc2c[nH]c3ccccc23)NC(=O)[C@H](Cc2ccc(O)cc2)NC(=O)[C@@H](NC(=O)[C@H](N)Cc2ccc3ccccc3c2)CSSC[C@@H](C(=O)N[C@H](C(N)=O)[C@@H](C)O)NC1=O [SOMATULINE, lanreotide]" attribute_measured="level at 72.48 h" uom=ng/mL test_value=7.77

* * *

Assay: Pharmacokinetic profile of a SOMATULINE/DECAPEPTYL composition in beagle dogs (RIA of blood samples)
Type: in vivo
Conditions: dog, in vivo; TIME 0.17 days; beagle dogs; 0.15 ml Example 1 semisolid mixture injected; read-out: concentration in blood samples (RIA)
ATTRIBUTE_MEASURED: level at 4.08 h (ng/mL)

compound="CC(C)[C@@H]1NC(=O)[C@H](CCCCN)NC(=O)[C@@H](Cc2c[nH]c3ccccc23)NC(=O)[C@H](Cc2ccc(O)cc2)NC(=O)[C@@H](NC(=O)[C@H](N)Cc2ccc3ccccc3c2)CSSC[C@@H](C(=O)N[C@H](C(N)=O)[C@@H](C)O)NC1=O [SOMATULINE, lanreotide]" test_value=17.3

* * *

Test: Pharmacokinetic profile of a SOMATULINE/DECAPEPTYL composition in beagle dogs (RIA of blood samples)
Type: in vivo
Conditions: beagle, dog, in vivo, 0.15 ml
ATTRIBUTE_MEASURED: level at 0.24 h (ng/mL)

molecule="CC(C)C[C@H](NC(=O)[C@@H](Cc1c[nH]c2ccccc12)NC(=O)[C@H](Cc1ccc(O)cc1)NC(=O)[C@H](CO)NC(=O)[C@H](Cc1c[nH]c2ccccc12)NC(=O)[C@H](Cc1c[nH]cn1)NC(=O)[C@@H]1CCC(=O)N1)C(=O)N[C@@H](CCCNC(=N)N)C(=O)N1CCC[C@H]1C(=O)NCC(N)=O [DECAPEPTYL]" uom=ng/mL test_value=2.66

* * *

Experiment: Pharmacokinetic profile of a SOMATULINE/DECAPEPTYL composition in beagle dogs (RIA of blood samples)
Type: in vivo
Details: dog, in vivo; TIME 17.02 days; beagle dogs; 0.15 ml Example 1 semisolid mixture injected; read-out: concentration in blood samples (RIA)
ATTRIBUTE_MEASURED: level at 408.48 h (ng/mL)

molecule="CC(C)[C@@H]1NC(=O)[C@H](CCCCN)NC(=O)[C@@H](Cc2c[nH]c3ccccc23)NC(=O)[C@H](Cc2ccc(O)cc2)NC(=O)[C@@H](NC(=O)[C@H](N)Cc2ccc3ccccc3c2)CSSC[C@@H](C(=O)N[C@H](C(N)=O)[C@@H](C)O)NC1=O [SOMATULINE, lanreotide]" test_value=1.85

* * *

Assay: Pharmacokinetic profile of a SOMATULINE/DECAPEPTYL composition in beagle dogs (RIA of blood samples)
Format: in vivo
Settings: beagle, dog, in vivo, 0.15 ml
ATTRIBUTE_MEASURED: level at 312.96 h (ng/mL)

molecule="CC(C)C[C@H](NC(=O)[C@@H](Cc1c[nH]c2ccccc12)NC(=O)[C@H](Cc1ccc(O)cc1)NC(=O)[C@H](CO)NC(=O)[C@H](Cc1c[nH]c2ccccc12)NC(=O)[C@H](Cc1c[nH]cn1)NC(=O)[C@@H]1CCC(=O)N1)C(=O)N[C@@H](CCCNC(=N)N)C(=O)N1CCC[C@H]1C(=O)NCC(N)=O [DECAPEPTYL]" test_value=0.42

* * *

Experiment: Pharmacokinetic profile of a SOMATULINE/DECAPEPTYL composition in beagle dogs (RIA of blood samples)
Format: in vivo
Details: dog, in vivo; TIME 29.11 days; beagle dogs; 0.15 ml Example 1 semisolid mixture injected; read-out: concentration in blood samples (RIA)
ATTRIBUTE_MEASURED: level at 698.64 h (ng/mL)

compound="CC(C)[C@@H]1NC(=O)[C@H](CCCCN)NC(=O)[C@@H](Cc2c[nH]c3ccccc23)NC(=O)[C@H](Cc2ccc(O)cc2)NC(=O)[C@@H](NC(=O)[C@H](N)Cc2ccc3ccccc3c2)CSSC[C@@H](C(=O)N[C@H](C(N)=O)[C@@H](C)O)NC1=O [SOMATULINE, lanreotide]" test_value=0.52

* * *

Experiment: Pharmacokinetic profile of a SOMATULINE/DECAPEPTYL composition in beagle dogs (RIA of blood samples)
Assay type: in vivo
Conditions: beagle, dog, in vivo, 0.15 ml
Description: Once a particular peptide or peptide salt is found to gel in an in vitro assay, e.g., an assay as described above, an in vivo assay can be used to determine the suitability of that peptide salt for use as a sustained-release carrier peptide of a therapeutic agent or agents in animals or humans. […] The suitability of a particular peptide gel, or a peptide/carrier gel, for therapeutic delivery of the carrier peptide and/or therapeutic agent or agents can thus be determined. […]
ATTRIBUTE_MEASURED: level at 9.12 h (ng/mL)

compound="CC(C)C[C@H](NC(=O)[C@@H](Cc1c[nH]c2ccccc12)NC(=O)[C@H](Cc1ccc(O)cc1)NC(=O)[C@H](CO)NC(=O)[C@H](Cc1c[nH]c2ccccc12)NC(=O)[C@H](Cc1c[nH]cn1)NC(=O)[C@@H]1CCC(=O)N1)C(=O)N[C@@H](CCCNC(=N)N)C(=O)N1CCC[C@H]1C(=O)NCC(N)=O [DECAPEPTYL]" uom=ng/mL test_value=23.1

* * *

Test: Pharmacokinetic profile of a SOMATULINE/DECAPEPTYL composition in beagle dogs (RIA of blood samples)
Format: in vivo
Details: dog, in vivo; TIME 0.01 days; beagle dogs; 0.15 ml Example 1 semisolid mixture injected; read-out: concentration in blood samples (RIA)
ATTRIBUTE_MEASURED: level at 0.24 h (ng/mL)

molecule="CC(C)[C@@H]1NC(=O)[C@H](CCCCN)NC(=O)[C@@H](Cc2c[nH]c3ccccc23)NC(=O)[C@H](Cc2ccc(O)cc2)NC(=O)[C@@H](NC(=O)[C@H](N)Cc2ccc3ccccc3c2)CSSC[C@@H](C(=O)N[C@H](C(N)=O)[C@@H](C)O)NC1=O [SOMATULINE, lanreotide]" uom=ng/mL test_value=3.91

* * *

Test: Pharmacokinetic profile of a SOMATULINE/DECAPEPTYL composition in beagle dogs (RIA of blood samples)
Format: in vivo
Conditions: dog, in vivo; TIME 1.99 days; beagle dogs; 0.15 ml Example 1 semisolid mixture injected; read-out: concentration in blood samples (RIA)
ATTRIBUTE_MEASURED: level at 47.76 h (ng/mL)

compound="CC(C)[C@@H]1NC(=O)[C@H](CCCCN)NC(=O)[C@@H](Cc2c[nH]c3ccccc23)NC(=O)[C@H](Cc2ccc(O)cc2)NC(=O)[C@@H](NC(=O)[C@H](N)Cc2ccc3ccccc3c2)CSSC[C@@H](C(=O)N[C@H](C(N)=O)[C@@H](C)O)NC1=O [SOMATULINE, lanreotide]" attribute_measured="level at 47.76 h" test_value=9.51
